Please go through the items and note down their optical density.
- Study system: T1, biotinylated goat anti-human kappa light chain
- T1 construct: positive control of the ELISA
- Assay remarks: ELISA, positive control; also: test concentration or dose not given here
Kindly provide the numeric value in OD only, without the unit symbol.

Request: Recorded optical density for 373_F12 (antibody, V domains shown, Group III) VH: EVQLLESGGGLVQPGGSLRLSCAASGFTFSSYSMNWVRQAPGKGLEWVSNINYNGGYTGYADSVKGRFTISRDNSKNTLYLQMNSLRAEDTAVYYCARGANWHDTALDYWGQGTLVTVSS VL: DIQMTQSPSSLSASVGDRVTITCRASQSISTYLNWYQQKPGKAPKLVIYAATSRASGVPSRFSGSGSGTDFTLTISSLQPEDFATYYCQQSYETPLTFGGGTKVEIK , please?
Response: 3.06

Request: Entry under review: 372_C06 (antibody, V domains shown, Group III) VH: EVQLLESGGGLVQPGGSLRLSCAASGFTFSDYSMNWVRQAPGKGLEWVSGINYNGGYTSYADSVKGRFTISRDNSKNTLYLQMNSLRAEDTAVYYCARGANWHDTALDYWGQGTLVTVSS VL: DIQMTQSPSSLSASVGDRVTITCRASQSIVSYVNWYQQKPGKAPKLLIYAATSRASGVPSRFSGSGSGTDFTLTISSLQPEDFATYYCQQSYSSPLTFGGGTKVEIK . Reported optical density?
Response: 3.49
